Where these numbers come from: patent US20210278408A1

System: 407 cancer cell lines
Test: Cell viability of cancer cell lines (IC50), CellTiter-Glo Viability Assay, 96 h
Type: cell-based
Details: SNU-638 cells, 96 h; read-out: Absolute IC50
metric: IC50 (µM)
Could you give me the number in µM? Just the number is fine.

# get_value(readout='IC50', item= N.N.[Cl][Pt][Cl] [Cisplatin, reference compound] )
4.48

###

Test system: 407 cancer cell lines
Assay: Cell viability of cancer cell lines (IC50), CellTiter-Glo Viability Assay, 96 h
Format: cell-based
Conditions: COV644 cells, 96 h; read-out: Absolute IC50
metric: IC50 (µM)
Could you give me the number in µM? Just the number is fine.

# get_value(readout='IC50', item= N.N.[Cl][Pt][Cl] [Cisplatin, reference compound] )
14.2

###

Test system: NCI-H2122
Experiment: Anti-proliferative activity, CellTiter-Glo, 72 hours: NCI-H2122
Format: cell-based, human
Details: NCI-H2122 (non-small cell lung cancer), Cell-Titre-Glo
metric: pIC50
API: returns pIC50 as number; meaning -log10 of concentration in mol/L.

# get_value(readout='pIC50', item= O=C(O)C(Cc1ccccc1[N+](=O)[O-])=NNc1nc(-c2ccc(Cl)c(Cl)c2)cs1 (mixture of isomers) [Compound 4EGI-1, 4EGI-1, reference compound] )
4.86

###

Tested on: 407 cancer cell lines
Assay: Cell viability of cancer cell lines (IC50), CellTiter-Glo Viability Assay, 96 h
Format: cell-based
Details: SK-OV-3 cells, 96 h; read-out: Absolute IC50
Method: Viability was determined by using the 50% inhibitory concentration (IC50) as determined with the CellTiter-Glo® Viability Assay (Promega). Experiments were initiated by first thawing and equilibrating the CellTiter-Glo® Buffer to room temperature. The lyophilized CellTiter-Glo® Substrate was also equilibrated to room temperature. […] Cells were harvested during the logarithmic growth period, counted, and the cell concentration adjusted to 4.44×10^4 cells/mL using culture medium. […]
metric: pIC50
API: returns pIC50 as number; meaning -log10 of concentration in mol/L.

# get_value(readout='pIC50', item= N.N.[Cl][Pt][Cl] [Cisplatin, reference compound] )
5.54

###

System: 407 cancer cell lines
Assay: Cell viability of cancer cell lines (IC50), CellTiter-Glo Viability Assay, 96 h
Type: cell-based
Conditions: NUGC-4 cells, 96 h; read-out: Absolute IC50
metric: IC50
A bare number is not enough; add the unit after it.

Param readout = IC50; param system = 407 cancer cell lines; param query = N.N.[Cl][Pt][Cl] [Cisplatin, reference compound] ; response: value
3.65 µM

###

Assay: Pharmacokinetics in CD-1 mice, single oral dose compared to single intravenous dose
Type: in vivo
Conditions: Intravenous, 0.5 mpk
metric: t1/2 (h)
Could you give me the number in h? Just the number is fine.

# get_value(readout='t1/2', item= `Cc1nn(-c2nc(-c3ccc(C(F)(F)F)cc3)c(SC(C)C)s2)c(C(=O)O)c1-c1cccc(F)c1` )
5.6

###

System: 407 cancer cell lines
Assay: Cell viability of cancer cell lines (IC50), CellTiter-Glo Viability Assay, 96 h
Type: cell-based
Conditions: WSU-NHL cells, 96 h; read-out: Absolute IC50
metric: IC50 (nM)
Could you give me the number in nM? Just the number is fine.

# get_value(readout='IC50', item= N.N.[Cl][Pt][Cl] [Cisplatin, reference compound] )
230

###

Test system: 407 cancer cell lines
Assay: Cell viability of cancer cell lines (IC50), CellTiter-Glo Viability Assay, 96 h
Format: cell-based
Settings: SW48 cells, 96 h; read-out: Absolute IC50
metric: pIC50
API: returns pIC50 as number; meaning -log10 of concentration in mol/L.

# get_value(readout='pIC50', item= N.N.[Cl][Pt][Cl] [Cisplatin, reference compound] )
5.90

###

Test system: 407 cancer cell lines
Experiment: Cell viability of cancer cell lines (IC50), CellTiter-Glo Viability Assay, 96 h
Format: cell-based
Conditions: Homo sapiens, WSU-NHL, 96 h, WSU-NHL cells, 96 h; read-out: Absolute IC50
metric: IC50

# get_value(readout='IC50', item= `Cc1nn(-c2nc(-c3ccc(C(F)(F)F)cc3)c(SC(C)C)s2)c(C(=O)O)c1-c1cccc(F)c1` )
480 nM

###

Tested on: 407 cancer cell lines
Test: Cell viability of cancer cell lines (IC50), CellTiter-Glo Viability Assay, 96 h
Format: cell-based
Settings: Homo sapiens, NCI-H508, 96 h, NCI-H508 cells, 96 h; read-out: Absolute IC50
metric: pIC50
API: returns pIC50 as number; meaning -log10 of concentration in mol/L.

Param readout = pIC50; param system = 407 cancer cell lines; param query = Cc1nn(-c2nc(-c3ccc(C(F)(F)F)cc3)c(SC(C)C)s2)c(C(=O)O)c1-c1cccc(F)c1 [Compound A197] ; response: value
5.88

###

Test system: 407 cancer cell lines
Experiment: Cell viability of cancer cell lines (IC50), CellTiter-Glo Viability Assay, 96 h
Format: cell-based
Details: SCC-15 cells, 96 h; read-out: Absolute IC50
metric: pIC50
API: returns pIC50 as number; meaning -log10 of concentration in mol/L.

# get_value(readout='pIC50', item= N.N.[Cl][Pt][Cl] [Cisplatin, reference compound] )
5.48

###

Test system: 407 cancer cell lines
Assay: Cell viability of cancer cell lines (IC50), CellTiter-Glo Viability Assay, 96 h
Format: cell-based
Details: Homo sapiens, TT, 96 h, TT cells, 96 h; read-out: Absolute IC50
metric: pIC50
API: returns pIC50 as number; meaning -log10 of concentration in mol/L.

# get_value(readout='pIC50', item= `Cc1nn(-c2nc(-c3ccc(C(F)(F)F)cc3)c(SC(C)C)s2)c(C(=O)O)c1-c1cccc(F)c1` )
5.68

###

System: 407 cancer cell lines
Test: Cell viability of cancer cell lines (IC50), CellTiter-Glo Viability Assay, 96 h
Assay type: cell-based
Conditions: HuCCT1, 96 h; read-out: Absolute IC50
Protocol: Viability was determined by using the 50% inhibitory concentration (IC50) as determined with the CellTiter-Glo® Viability Assay (Promega). Experiments were initiated by first thawing and equilibrating the CellTiter-Glo® Buffer to room temperature. The lyophilized CellTiter-Glo® Substrate was also equilibrated to room temperature. […] Cells were harvested during the logarithmic growth period, counted, and the cell concentration adjusted to 4.44×10^4 cells/mL using culture medium. […]
metric: pIC50
API: returns pIC50 as number; meaning -log10 of concentration in mol/L.

# get_value(readout='pIC50', item= N.N.[Cl][Pt][Cl] [Cisplatin, reference compound] )
5.00

###

Tested on: NCI-H460
Test: Anti-proliferative activity, CellTiter-Glo, 72 hours: NCI-H460
Type: cell-based, human
Details: NCI-H460 (non-small cell lung cancer), Cell-Titre-Glo
metric: IC50
A bare number is not enough; add the unit after it.

# get_value(readout='IC50', item= O=C(O)C(Cc1ccccc1[N+](=O)[O-])=NNc1nc(-c2ccc(Cl)c(Cl)c2)cs1 (mixture of isomers) [Compound 4EGI-1, 4EGI-1, reference compound] )
9.46 µM

###

Test: Pharmacokinetics in CD-1 mice, single oral dose compared to single intravenous dose
Type: in vivo
Conditions: CD-1, mouse, plasma, po, 2.5 mg/kg, single oral dose compared to single intravenous dose, read-out: Bioavailability
metric: bioavailability
A bare number is not enough; add the unit after it.

# get_value(readout='bioavailability', item= `Cc1nn(-c2nc(-c3ccc(C(F)(F)F)cc3)c(SC(C)C)s2)c(C(=O)O)c1-c1cccc(F)c1` )
59%

###

Assay: Pharmacokinetics in CD-1 mice, single oral dose compared to single intravenous dose
Assay type: in vivo
Settings: mouse, plasma, 2.5 mg/kg, single oral dose, read-out: Plasma drug tmax
Procedure: Pharmacokinetic Properties of Compound A197 Compound A197 levels in blood plasma of CD-1 mice given a single, oral dose of the agent and compared to a single intravenous dose, were measured to assess basic pharmacokinetic parameters. A197 was dissolved in 1% NMP, 0.3% Tween-80 in 0.5% methylcellulose at a dose volume of 10 ml/kg. Following compound dosing, blood was collected by tail vein bleed at 30 minutes, 1, 2, 4, 8, 12, 24 and 48 hrs following dosing.
metric: Tmax (h)
Could you give me the number in h? Just the number is fine.

# get_value(readout='Tmax', item= `Cc1nn(-c2nc(-c3ccc(C(F)(F)F)cc3)c(SC(C)C)s2)c(C(=O)O)c1-c1cccc(F)c1` )
6

###

System: 407 cancer cell lines
Test: Cell viability of cancer cell lines (IC50), CellTiter-Glo Viability Assay, 96 h
Assay type: cell-based
Conditions: SK-MEL-28, 96 h; read-out: Absolute IC50
metric: pIC50
API: returns pIC50 as number; meaning -log10 of concentration in mol/L.

# get_value(readout='pIC50', item= N.N.[Cl][Pt][Cl] [Cisplatin, reference compound] )
5.25
